Please respond with reported log10 IC50 for every item in the list.
- assayed.system: CDK3/Cyclin E complex (Homo sapiens, UniProt Q00526)
- Sequence (Q00526 whole entry): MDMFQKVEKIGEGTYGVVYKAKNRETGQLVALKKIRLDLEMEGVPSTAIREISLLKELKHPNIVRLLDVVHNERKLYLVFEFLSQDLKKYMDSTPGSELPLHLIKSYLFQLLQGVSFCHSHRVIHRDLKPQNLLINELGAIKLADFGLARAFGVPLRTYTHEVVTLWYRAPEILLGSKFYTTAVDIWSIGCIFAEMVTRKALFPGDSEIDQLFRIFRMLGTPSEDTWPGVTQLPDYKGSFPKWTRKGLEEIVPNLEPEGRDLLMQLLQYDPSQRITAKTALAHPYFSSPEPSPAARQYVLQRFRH
- Sequence (P24864 whole entry partner): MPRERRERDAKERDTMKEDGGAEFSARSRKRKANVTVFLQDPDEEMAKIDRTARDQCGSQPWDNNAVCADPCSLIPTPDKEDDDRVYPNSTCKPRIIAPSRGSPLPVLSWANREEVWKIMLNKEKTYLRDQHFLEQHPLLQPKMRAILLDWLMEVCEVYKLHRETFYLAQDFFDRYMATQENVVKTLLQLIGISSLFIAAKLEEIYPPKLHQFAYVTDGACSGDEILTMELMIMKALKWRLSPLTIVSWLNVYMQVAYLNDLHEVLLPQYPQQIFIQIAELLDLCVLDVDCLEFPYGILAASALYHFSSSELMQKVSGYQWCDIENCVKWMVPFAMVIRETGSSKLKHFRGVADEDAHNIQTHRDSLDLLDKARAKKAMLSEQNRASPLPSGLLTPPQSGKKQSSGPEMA
- measurement.notes: In vitro kinase assay, CDK3/Cyclin E complex
- settings: recombinant protein (Upstate); read-out: CDK3/cyclinE IC50
All values: log10 IC50 [nM].

Example results:
1. CCNC(=O)c1cc(NC(C)(C)C(=O)Nc2nc3c(C(F)(F)F)cc4[nH]ncc4c3s2)ccc1Cl = 1.20
2. O=C(Nc1nc2ccc3[nH]ncc3c2s1)C1(Nc2ccc(Cl)cc2)CCC1 = 2.24
3. O=C(CNc1cccc(F)c1)Nc1nc2ccc3[nH]ncc3c2s1 = 2.59
4. CC(C)(Nc1ccc(Cl)c(C(=O)NCCC(=O)O)c1)C(=O)Nc1nc2c(C(F)(F)F)cc3[nH]ncc3c2s1 = 1.85
5. O=C(Nc1nc2ccc3[nH]ncc3c2s1)C1(Nc2cccc(O)c2)CC1 = 1.80
6. CC(Nc1cccc(O)c1)C(=O)Nc1nc2ccc3[nH]ncc3c2s1 (centres unmarked) = 1.67

Need log10 IC50 for each of these molecules.
1. O=C(Nc1nc2ccc3[nH]ncc3c2s1)C1CCCN1c1ccc(Cl)cc1 (centres unmarked)
2. COc1cc(NCC(=O)Nc2nc3ccc4[nH]ncc4c3s2)ccc1Cl
3. CCOC(=O)c1cc(NC(C)(C)C(=O)Nc2nc3ccc4[nH]ncc4c3s2)ccc1Cl

Reply:
2.42
2.67
2.20

Reference source: patent US7879887B2
